- TEST_DESCRIPTION: Activation of Wnt signaling pathway in HEK293 cells assessed as increase in beta-catenin-mediated Tcf/Lef transcriptional activity at 250 nM after 24 hrs by dual luciferase reporter gene assay relative to control
- Type: cell-based
- RUN_PARAMETERS: Homo sapiens
List of fold change (FC) values.

[
  {
    "MOL_SMILES": "O=C1Nc2ccc([N+](=O)[O-])cc2/C1=C1/Nc2ccc(Br)cc2/C1=N/O",
    "fold change (FC)": 1.66
  },
  {
    "MOL_SMILES": "O=C1Nc2cc(Br)ccc2/C1=C1/Nc2ccccc2/C1=N\\O",
    "fold change (FC)": 2.7
  },
  {
    "MOL_SMILES": "CC(=O)Nc1ccc2c(c1)/C(=C1/Nc3ccccc3/C1=N\\O)C(=O)N2",
    "fold change (FC)": 1.89
  },
  {
    "MOL_SMILES": "CC(C)(C)C(=O)Nc1ccc2c(c1)/C(=C1/Nc3ccccc3/C1=N\\O)C(=O)N2",
    "fold change (FC)": 1.51
  },
  {
    "MOL_SMILES": "O=C1Nc2ccccc2/C1=C1/Nc2ccccc2C1=O",
    "fold change (FC)": 2.04
  },
  {
    "MOL_SMILES": "O=C1Nc2ccc(Cl)cc2/C1=C1/Nc2ccccc2/C1=N\\O",
    "fold change (FC)": 3.46
  },
  {
    "MOL_SMILES": "O=Nc1c(-c2c(O)[nH]c3ccc([N+](=O)[O-])cc23)[nH]c2ccccc12",
    "fold change (FC)": 4.2
  }
]
